Target: human CD3e (T-cell surface glycoprotein CD3 epsilon chain) (human, UniProt P07766 23-207)
Test: cell-based or functional assay
property: EC50, luciferase of Jurkat-Luc-NFAT cells; purified antibody
A bare number is not enough; add the unit after it.

Ask: For the binder Teplizumab (antibody, V domains shown) VH: QVQLVQSGGGVVQPGRSLRLSCKASGYTFTRYTMHWVRQAPGKGLEWIGYINPSRGYTNYNQKVKDRFTISRDNSKNTAFLQMDSLRPEDTGVYFCARYYDDHYCLDYWGQGTPVTVSS VL: DIQMTQSPSSLSASVGDRVTITCSASSSVSYMNWYQQTPGKAPKRWIYDTSKLASGVPSRFSGSGSGTDYTFTISSLQPEDIATYYCQQWSSNPFTFGQGTKLQITR , report EC50, luciferase of Jurkat-Luc-NFAT cells; purified antibody.
Reply: 0.149 µg/mL

Ask: For the binder 10A4-H2K2-IgG1-LALA (antibody, V domains shown, Humanized; human IgG1 with LALA mutations; also called H2K2 (humanized 10A4)) VH: QVQLVQSGAEVKKPGASVKISCKASGYTFTSYYIHWVRQAPGQRLEFIGWIYPGNVNAKYNEKFKGRATITTDKSASTAYMELSSLRSEDTAVYYCAIKGGNYDWGQGTLVTVSS VL: DVVMTQSPLSLPVTLGQPASISCQSSQSLLDSDGKTYLNWLQQRPGQSPRRLIYLVSKLGSGVPDRFSGSGSGTDFTLKISRVEAEDVGVYYCWQGTHFPRTFGGGTKLEIK , report EC50, luciferase of Jurkat-Luc-NFAT cells; purified antibody.
Reply: 0.263 µg/mL

Ask: For the binder 10A4-H1K2-IgG1-LALA (antibody, V domains shown, Humanized; human IgG1 with LALA mutations; also called H1K2 (humanized 10A4)) VH: QVQLVQSGAEVKKPGASVKVSCKASGYTFTSYYIHWVRQAPGQRLEFIGWIYPGNVNAKYNEKFKGRVTITTDKSASTAYMELSSLRSEDTAVYYCAIKGGNYDWGQGTLVTVSS VL: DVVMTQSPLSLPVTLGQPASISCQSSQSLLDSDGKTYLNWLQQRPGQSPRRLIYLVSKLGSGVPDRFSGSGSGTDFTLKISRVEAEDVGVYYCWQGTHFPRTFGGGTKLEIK , report EC50, luciferase of Jurkat-Luc-NFAT cells; purified antibody.
Reply: 0.726 µg/mL

Ask: For the binder 10A4-H2K1-IgG1-LALA (antibody, V domains shown, Humanized; human IgG1 with LALA mutations; also called H2K1 (humanized 10A4)) VH: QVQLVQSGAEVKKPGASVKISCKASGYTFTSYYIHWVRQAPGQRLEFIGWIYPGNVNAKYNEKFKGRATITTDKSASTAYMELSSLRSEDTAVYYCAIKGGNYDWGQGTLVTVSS VL: DVVMTQSPLSLPVTLGQPASISCQSSQSLLDSDGKTYLNWLQQRPGQSPRRLIYLVSKLGSGVPDRFSGSGSGTDFTLKISRVEAEDVGVYYCWQGTHFPRTFGGGTKVEIK , report EC50, luciferase of Jurkat-Luc-NFAT cells; purified antibody.
Reply: 0.313 µg/mL

This collection of values is drawn from patent US20210269525A1.
